# credit: ChEMBL document CHEMBL4732039

- assay comment: Cytotoxicity against human HFF cells assessed as reduction in cell viability incubated for 14 days by cell titer glo assay
- Assay type: cell-based
- condition label: time 14 day
// CC50 at 336 h lookup, one value per entry

Recorded CC50 at 336 h, per entry:
| compound | CC50 at 336 h |
| --- | --- |
| Nc1nc2c(ncn2COC(CO)CO)c(=O)[nH]1 | > 150 µM |
| CCN(CC)CC.Cc1cn(CC(C#N)(CO)OCP(=O)(O)O)c(=O)[nH]c1=O (stereo unspecified) | > 150 µM |
| CCN(CC)CC.N#CC(CO)(Cn1ccc(=O)[nH]c1=O)OCP(=O)(O)O (stereo unspecified) | > 150 µM |
| CCN(CC)CC.N#CC(CO)(Cn1ccc(N)nc1=O)OCP(=O)(O)O (stereo unspecified) | > 150 µM |
| CCN(CC)CC.N#CC(CO)(Cn1cnc2c(N)ncnc21)OCP(=O)(O)O (stereo unspecified) | > 150 µM |

Let us move to another entry and its CC50 at 336 h.
Exercise: Name the recorded CC50 at 336 h for CCN(CC)CC.N#CC(CO)(Cn1cnc2c(=O)[nH]c(N)nc21)OCP(=O)(O)O (stereo unspecified) .
Key: 102 µM
